// data source = patent US20110015162A1

# TARGET_UNDER_TEST: fusion protein from the PR-ligand-binding domain and a Gal4-transactivation domain (Homo sapiens, UniProt P06401)
# Construct: expressed in transfected cells; host or cells: CHO K1 cells, stably transfected
# Sequence (P06401 679-913 limits assumed): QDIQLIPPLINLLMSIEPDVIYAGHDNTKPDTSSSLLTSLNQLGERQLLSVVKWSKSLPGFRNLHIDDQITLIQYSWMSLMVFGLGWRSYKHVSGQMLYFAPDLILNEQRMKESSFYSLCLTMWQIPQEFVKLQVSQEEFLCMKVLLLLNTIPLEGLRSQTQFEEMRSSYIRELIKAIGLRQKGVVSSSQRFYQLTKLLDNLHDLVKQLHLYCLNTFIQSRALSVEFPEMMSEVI
# Sequence (P04386 1-147 partner limits assumed): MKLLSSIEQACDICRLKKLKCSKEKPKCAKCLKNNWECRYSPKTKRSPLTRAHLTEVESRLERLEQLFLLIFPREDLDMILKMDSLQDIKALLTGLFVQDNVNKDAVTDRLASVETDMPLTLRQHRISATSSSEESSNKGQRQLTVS
# PROCEDURE_SUMMARY: Progestational action by transactivation test (CHO K1 reporter cells)
# Assay type: cell-based
QUANTITY_MEASURED: pEC50
In textbook form, pEC50 equals minus log to base ten of the concentration in mol/L.

CC[C@]12CC[C@H]3[C@@H]([C@H]4C[C@H]4C4=CC(=O)CC[C@@H]43)[C@@H]1[C@@H]1C[C@@H]1[C@@]21C=CC(=O)O1 [Example 1] :: 8.82
C=C[C@@H]1CC2=CC(=O)CC[C@@H]2[C@H]2CC[C@@]3(C)[C@@H]([C@H]4C[C@H]4[C@@]34C=CC(=O)O4)[C@@H]21 [Example 16A] :: 6.85
CC[C@]12CC[C@H]3[C@@H](CCC4=CC(=O)CC[C@@H]43)[C@@H]1[C@@H]1C[C@@H]1[C@@]21C=CC(=O)O1 [Example 9] :: 8.80
C=C[C@@H]1CC2=CC(=O)CC[C@@H]2[C@H]2CC[C@@]3(C)[C@@H]([C@@H]4C[C@@H]4[C@@]34C=CC(=O)O4)[C@@H]21 [Example 25A] :: 6.25
CC[C@@H]1CC2=CC(=O)CC[C@@H]2[C@H]2CC[C@@]3(C)[C@@H]([C@H]4C[C@H]4[C@@]34C=CC(=O)O4)[C@H]12 [Example 15A] :: 7.04
CC[C@@H]1CC2=CC(=O)CC[C@@H]2[C@H]2CC[C@@]3(CC)[C@@H]([C@@H]4C[C@@H]4[C@@]34C=CC(=O)O4)[C@H]12 [Example 5A] :: 7.00
CC[C@]12CC[C@H]3[C@@H](C=CC4=CC(=O)CC[C@@H]43)[C@@H]1[C@@H]1C[C@@H]1[C@@]21C=CC(=O)O1 [Example 3] :: 8.85
CC[C@]12CC[C@H]3[C@H]([C@@H]1[C@@H]1C[C@@H]1[C@@]21C=CC(=O)O1)[C@H](C)CC1=CC(=O)CC[C@@H]13 [Example 4A] :: 7.41

Query :: Name the reported pEC50 value associated with the molecule C[C@]12CC[C@H]3[C@@H](CC4(CC4)C4=CC(=O)CC[C@@H]43)[C@@H]1[C@@H]1C[C@@H]1[C@@]21C=CC(=O)O1 [Example 22]
Result :: 8.96

Query :: Try the molecule C[C@]12CC[C@H]3[C@H]([C@@H]1[C@H]1C[C@H]1[C@@]21C=CC(=O)O1)[C@H](C1CC1)CC1=CC(=O)CC[C@@H]13 [Example 17A]
Result :: 6.01
